- Assay info: clinical
- Condition notes: human, in vivo, iv, CL
Peptide text beside a SMILES is read from it.
Metric name: clearance (mL/min)

INSERT INTO measurements (molecule, metric_name, units_of_measure, endpoint_value) VALUES
  ('CC(=O)N[C@H](C(=O)N[C@H](CO)C(=O)N[C@H]1CCNC(=O)[C@H]([C@@H](C)O)NC(=O)[C@H](CCN)NC(=O)[C@H](CCN)NC(=O)[C@H](CC(C)C)NC(=O)[C@@H](Cc2ccccc2)NC(=O)[C@H](CCN)NC1=O)[C@@H](C)O [SPR741] (HELM PEPTIDE1{[ac].T.[dS].[Dab].[Dab].[dF].L.[Dab].[Dab].T}$PEPTIDE1,PEPTIDE1,4:R3-10:R2$$$V2.0)', 'clearance', 'mL/min', 89);
